System: angiotensin-converting enzyme (ACE)
Construct: purified angiotensin-converting enzyme (ACE) from rabbit lungs; purchased Sigma, St-Louis, Mo; host or cells: purified from rabbit lungs
assay comment: Metabolic degradation by purified angiotensin-converting enzyme, HPLC analysis
Type: in vitro ADME, rabbit
condition description: rabbit, isolated enzyme ace, pH 7.5
Non-standard residues stand in square brackets, D forms with d. Residues, ends and D or L forms follow the SMILES beside them. d2Nal = N[C@H](Cc1ccc2ccccc2c1)C(=O)O; NMeA = CN[C@@H](C)C(=O)O; Ahx = NCCCCCC(=O)O; Sar = CNCC(=O)O

- compound: "CC(C)C[C@H](NC(=O)[C@@H]1CCCN1C(=O)[C@H](CO)NC(=O)[C@H](Cc1ccccc1)NC(=O)CNC(=O)[C@@H]1CCCN1C(=O)[C@@H]1CCCN1C(=O)[C@@H](N)CCCNC(=N)N)C(=O)O [Compound 1, (Leu^8)desArg^9BK, reference compound]"
  metabolised at 0.5 h, 42.1 μmol/L [%]: 83
- compound: "CC[C@H](C)[C@H](NC(=O)[C@@H](Cc1ccc2ccccc2c1)NC(=O)[C@H](CO)NC(=O)[C@H](Cc1ccccc1)NC(=O)CNC(=O)[C@@H]1CCCN1C(=O)[C@@H]1CCCN1C(=O)[C@H](CCCNC(=N)N)NC(=O)[C@H](CCCCN)NC(=O)CCCCCNC(=O)[C@H](Cc1ccc(O)cc1)NC(=O)CNC)C(=O)O [Compound 29, SarTyrεAhxLys(D-βNal^7, Ile^8)desArg^9BK] (H-[Sar]Y[Ahx]KRPPGFS[d2Nal]I-OH; N-terminus and C-terminus assumed)"
  metabolised at 0.5 h, 42.1 μmol/L [%]: 15
- compound: "CC(C)C[C@H](NC(=O)[C@@H](Cc1ccc2ccccc2c1)NC(=O)[C@H](CO)NC(=O)[C@H](Cc1ccccc1)NC(=O)CNC(=O)[C@@H]1CCCN1C(=O)[C@@H]1CCCN1C(=O)[C@H](CCCNC(=N)N)NC(=O)[C@H](N)CCCNC(=N)N)C(=O)O [Compound 24, D-Arg(D-βNal^7, Leu^8)desArg^9BK] (H-[dR]RPPGFS[d2Nal]L-OH; N-terminus and C-terminus assumed)"
  metabolised at 0.5 h, 42.1 μmol/L [%]: 5
- compound: "CC[C@H](C)[C@H](NC(=O)[C@@H](Cc1ccc2ccccc2c1)NC(=O)[C@H](C)N(C)C(=O)[C@H](Cc1ccccc1)NC(=O)CNC(=O)[C@@H]1CCCN1C(=O)[C@@H]1CCCN1C(=O)[C@H](CCCNC(=N)N)NC(=O)[C@H](CCCCN)NC(C)=O)C(=O)O [Compound 22] (Ac-KRPPGF[NMeA][d2Nal]I-OH; C-terminus assumed)"
  metabolised at 0.5 h, 42.1 μmol/L [%]: 0
- compound: "CC(C)C[C@H](NC(=O)[C@@H]1CCCN1C(=O)[C@H](CO)NC(=O)[C@H](Cc1ccccc1)NC(=O)CNC(=O)[C@@H]1C[C@@H](O)CN1C(=O)[C@@H]1CCCN1C(=O)[C@H](CCCNC(=N)N)NC(=O)[C@H](N)CCCNC(=N)N)C(=O)O"
  metabolised at 0.5 h, 42.1 μmol/L [%]: 83
- compound: "CNCC(=O)N[C@@H](Cc1ccc(O)cc1)C(=O)NCCCCCC(=O)N[C@@H](CCCCN)C(=O)N[C@@H](CCCNC(=N)N)C(=O)N1CCC[C@H]1C(=O)N1CCC[C@H]1C(=O)NCC(=O)N[C@@H](Cc1ccccc1)C(=O)N[C@@H](CO)C(=O)N1CCC[C@H]1C(=O)N[C@@H](CC(C)C)C(=O)O"
  metabolised at 0.5 h, 42.1 μmol/L [%]: 34
